Reported melting point values are given for each entry in this list.

Example entries begin here.
[[record]]
compound = "Cn1nc2nnsc2c1C(N)=O"
measured_property = "melting point"
observed_measurement = "183 to 184 °C"

[[record]]
compound = "N#Cc1ncn2c(C(F)(F)F)cc(-c3cccc(C(F)(F)F)c3)nc12"
measured_property = "melting point"
observed_measurement = "202 °C"

[[record]]
compound = "CCCN1C(=O)c2ccccc2Sc2ccccc21"
measured_property = "melting point"
observed_measurement = "103 to 104 °C"

[[record]]
compound = "CCCCCCCCCCCCCCCCCC(=O)OC1CC(C)(C)N(OC(C)=O)C(CC)(CC)C1 (stereo unspecified)"
measured_property = "melting point"
observed_measurement = "41 to 44 °C"

[[record]]
compound = "O=C(CN1CCN(c2ncccn2)CC1)c1ccc(-c2cccc(C(F)(F)F)c2)nc1"
measured_property = "melting point"
observed_measurement = "124 to 126 °C"


Qu. Could you share which melting point value was measured for COc1ccc(-c2c(Cl)ncnc2Cl)cc1 ?
Ans. 95 to 96 °C

Qu. Next: COC(=O)C1CC2c3cccc4[nH]cc(c34)CC2N(C(=O)C2CC2)C1 (stereo unspecified)
Ans. 276 to 278 °C

Qu. Try this compound next: COC(=O)CCCCCCNC(=O)C(CS)Cc1ccccc1 (stereo unspecified)
Ans. 68 to 70 °C

Qu. Next compound up: CC(=O)NCCCC(=O)c1ccc(Cl)cc1CCC(=O)N1CCN(C)CC1
Ans. 126 to 128 °C

Qu. // repeat for COC(=O)C=CC1=CC2=CNC=C3CC(N(C)C)C(=C23)CO1 (stereo unspecified) and report
Ans. 168 to 170 °C

Qu. Request: CCOC(=O)[C@@H](O)CCNC(=O)[C@@H](CSC(C)=O)Cc1ccccc1C
Ans. 48 to 52 °C

Origin of values: a melting point compilation (Tetko et al.; mined from patent text by program, amines drawn as free bases though some values may be those of a salt)
